assay: Stability in dog plasma assessed as parent compound remaining measured at 15 mins by LC-MS/MS analysis; format: ADME, cell-free, Canis lupus familiaris; details: read-out: Stability

{"compound": "CC(C)(C)[C@H](NC(=O)c1cc2cc(C(F)(F)P(=O)(O)O)ccc2s1)C(=O)N1C[C@@H](OCCCCCC#Cc2cccc3c2CN(C2CCC(=O)NC2=O)C3=O)C[C@H]1C(=O)N1CCO[C@H](c2ccccc2)C1 (stereo partly specified)", "remaining at 0.25 h": "87%"}

* * *

test: Metabolic stability in monkey liver microsome assessed as parent compound remaining measured at 15 mins in presence of NADPH by LC-MS/MS analysis; assay type: ADME, Macaca mulatta; conditions: rhesus monkey, liver microsomes, read-out: Stability

{"compound": "CC(C)(C)[C@H](NC(=O)c1cc2cc(C(F)(F)P(=O)(O)O)ccc2s1)C(=O)N1C[C@@H](OCCCCCC#Cc2cccc3c2CN(C2CCC(=O)NC2=O)C3=O)C[C@H]1C(=O)N1CCO[C@H](c2ccccc2)C1 (stereo partly specified)", "remaining at 0.25 h, %": 83}
